target: hGal-3 protein (Homo sapiens, UniProt P17931)
Sequence (P17931 whole entry): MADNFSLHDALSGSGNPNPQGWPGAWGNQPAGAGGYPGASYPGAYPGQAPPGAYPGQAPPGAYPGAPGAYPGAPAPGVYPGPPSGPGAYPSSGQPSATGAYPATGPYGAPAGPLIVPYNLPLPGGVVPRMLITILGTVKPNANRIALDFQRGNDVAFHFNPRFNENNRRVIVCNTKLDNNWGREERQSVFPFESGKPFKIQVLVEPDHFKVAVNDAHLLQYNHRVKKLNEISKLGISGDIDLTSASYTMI
The following compounds are shown together with reported pIC50 values.
On this scale, pIC50 is minus log10 of a concentration expressed in M (mol/L).

stdin: // returns reported pIC50 for input OC[C@H]1O[C@@H](S[C@@H]2O[C@H](CO)[C@H](O)[C@H](OCc3ccccc3)[C@H]2O)[C@H](O)[C@@H](OCc2ccccc2)[C@H]1O [Compound 3]
stdout: 3.76

stdin: Now try OC[C@H]1O[C@@H](S[C@@H]2O[C@H](CO)[C@H](O)[C@H](OCc3ccc4ccccc4c3)[C@H]2O)[C@H](O)[C@@H](OCc2ccc3ccccc3c2)[C@H]1O [Compound 2] .
stdout: 4.37

stdin: And then OC[C@H]1O[C@@H](S[C@@H]2O[C@H](CO)[C@H](O)[C@H](OCc3ccc4ccccc4n3)[C@H]2O)[C@H](O)[C@@H](OCc2ccc3ccccc3n2)[C@H]1O [Compound 1] , what is it?
stdout: 3.87
